experimental endpoint: melting point (°C)
Write the number in °C without appending the unit.

Asked: Tell me the measured melting point of CCOC(=O)OC1=C(c2cc(C)c(Cl)cc2C)C(=O)NC12CCC(OC)CC2 (centres unmarked) , please.
Given back: 162

Attention now shifts to the item below.
Asked: Tell me the measured melting point of COC1CCC2(CC1)NC(=O)C(c1c(C)ccc(Cl)c1C)=C2O (centres unmarked) , please.
Given back: 219

----------
experimental endpoint: melting point

Asked: Tell me the measured melting point of COC1CCC2(CC1)NC(=O)C(c1cc(C)ccc1C)=C2O (stereo not drawn) , please.
Given back: > 220 °C

Asked: Tell me the measured melting point of COC1CCC2(CC1)NC(=O)C(c1c(C)ccc(Br)c1C)=C2O (stereo not drawn) , please.
Given back: > 220 °C

Asked: Tell me the measured melting point of COC1CCC2(CC1)NC(=O)C(c1c(C)cc(C)c(C)c1C)=C2O (stereo not drawn) , please.
Given back: > 220 °C
